- System tested: Tyrosine phenol-lyase (TPL) (Morganella morganii, UniProt J7TAF3)
- Construct: recombinant TPL from M. morganii ssp. morganii (JCM1672), pET-15b
- Sequence (J7TAF3 1-456): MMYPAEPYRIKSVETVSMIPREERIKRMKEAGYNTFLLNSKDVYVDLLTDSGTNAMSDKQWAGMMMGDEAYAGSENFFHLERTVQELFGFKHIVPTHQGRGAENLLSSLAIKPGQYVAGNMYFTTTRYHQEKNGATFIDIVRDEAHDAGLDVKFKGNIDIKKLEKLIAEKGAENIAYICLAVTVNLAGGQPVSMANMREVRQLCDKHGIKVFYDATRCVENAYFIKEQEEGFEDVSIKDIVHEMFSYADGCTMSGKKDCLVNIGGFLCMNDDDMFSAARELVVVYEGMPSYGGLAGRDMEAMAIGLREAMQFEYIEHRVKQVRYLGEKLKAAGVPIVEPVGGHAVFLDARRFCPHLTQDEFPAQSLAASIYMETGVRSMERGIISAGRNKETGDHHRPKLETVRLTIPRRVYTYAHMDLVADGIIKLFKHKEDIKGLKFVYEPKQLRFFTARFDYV
- Method summary: recombinant TPL assay, phenol by LC-MS; Lineweaver-Burk kinetics
- Type: biochemical
Quantity kind: Ki (µM)
Numeric only. Scale: µM

Input: Provide value of Ki for this record tested with Tyrosine phenol-lyase (TPL) (Morganella morganii, UniProt J7TAF3): O=c1c(O)c(-c2ccc(O)c(O)c2)oc2cc(O)cc(O)c12 [quercetin]
Output: 19.9

---

- System tested: Tyrosine phenol-lyase (TPL) (Morganella morganii)
- Construct: recombinant TPL from M. morganii ssp. morganii (JCM1672), pET-15b
- Method summary: recombinant TPL assay, phenol by LC-MS; Lineweaver-Burk kinetics
- Format: biochemical
- Condition notes: read-out: Ki
Quantity kind: Ki (µM)
Give the number; µM is assumed, so skip it.

Input: Provide value of Ki for this record tested with Tyrosine phenol-lyase (TPL) (Morganella morganii): N[C@@H](Cc1ccc(O)cn1)C(=O)O [2-aza-Tyr]
Output: 42

Recorded values, source paper PMC11259132.
